Data credit: patent US20140296216A1

Form field: IC50 (one value per entry).
# Subject of test: EGFRL858R (Homo sapiens, UniProt P00533, L858R)
# Sequence (P00533 25-1210 L858R): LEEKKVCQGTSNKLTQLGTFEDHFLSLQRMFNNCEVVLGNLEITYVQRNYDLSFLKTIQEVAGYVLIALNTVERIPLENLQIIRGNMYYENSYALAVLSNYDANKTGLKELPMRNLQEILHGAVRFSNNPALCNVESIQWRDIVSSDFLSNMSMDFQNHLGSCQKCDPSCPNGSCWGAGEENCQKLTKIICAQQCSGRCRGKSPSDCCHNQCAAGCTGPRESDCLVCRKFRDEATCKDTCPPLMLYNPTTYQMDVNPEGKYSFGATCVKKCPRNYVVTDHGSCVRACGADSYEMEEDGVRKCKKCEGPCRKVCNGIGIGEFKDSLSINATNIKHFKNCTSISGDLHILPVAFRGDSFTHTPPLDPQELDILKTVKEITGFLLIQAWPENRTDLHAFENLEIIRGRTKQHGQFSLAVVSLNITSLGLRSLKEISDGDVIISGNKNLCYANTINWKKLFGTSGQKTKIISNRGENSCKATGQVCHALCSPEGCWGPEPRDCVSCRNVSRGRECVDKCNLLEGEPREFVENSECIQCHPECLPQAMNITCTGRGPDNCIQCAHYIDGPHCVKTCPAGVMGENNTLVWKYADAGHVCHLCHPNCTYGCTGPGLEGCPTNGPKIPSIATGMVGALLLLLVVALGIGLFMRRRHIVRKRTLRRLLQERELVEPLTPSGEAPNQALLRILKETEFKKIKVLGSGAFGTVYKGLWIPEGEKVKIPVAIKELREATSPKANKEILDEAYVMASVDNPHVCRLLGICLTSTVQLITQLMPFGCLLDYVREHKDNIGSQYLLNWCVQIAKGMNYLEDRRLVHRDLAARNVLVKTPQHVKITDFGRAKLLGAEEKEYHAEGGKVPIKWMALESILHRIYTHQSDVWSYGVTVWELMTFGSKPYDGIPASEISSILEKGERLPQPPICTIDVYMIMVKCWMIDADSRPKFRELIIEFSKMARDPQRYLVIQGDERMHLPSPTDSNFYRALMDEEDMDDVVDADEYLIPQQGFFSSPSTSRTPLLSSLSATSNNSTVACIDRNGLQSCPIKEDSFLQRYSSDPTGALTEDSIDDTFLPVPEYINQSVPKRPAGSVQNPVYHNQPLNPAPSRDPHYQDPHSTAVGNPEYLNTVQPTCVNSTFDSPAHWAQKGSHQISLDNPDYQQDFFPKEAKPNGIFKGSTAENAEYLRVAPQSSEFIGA
# Assay overview: In vitro enzymatic activity assay (Z'-LYTE), EGFR L858R
# Assay conditions: Z'-LYTE FRET peptide assay; read-out: EGFRL858R kinase activity (IC50)

- Compound: "C=CC(=O)Nc1cccc(N2C(=O)N(c3ccccc3C)Cc3cnc(Nc4ccc(N5CCN(C)CC5)cc4OC)nc32)c1 [C-EGF39]"
  IC50: "≤ 0.01 µM"
- Compound: "C=CC(=O)Nc1cccc(N2C(=O)N(c3cccc(C#N)c3)Cc3cnc(Nc4ccc(N5CCN(C)CC5)cc4OC)nc32)c1 [C-EGF36]"
  IC50: "≤ 0.01 µM"
- Compound: "C=CC(=O)Nc1cccc(N2C(=O)N(C)Cc3cnc(Nc4ccc(N5CCSCC5)cc4OC)nc32)c1 [C-EGF09]"
  IC50: "0.01 to 0.1 µM"

Let us examine a further case.
Task: Requested read-out: IC50. Entry: C=CC(=O)Nc1cccc(N2C(=O)N(C)Cc3cnc(Nc4ccc(N5CCC(N6CCN(C)CC6)CC5)cc4OC)nc32)c1 [C-EGF14]
Result: ≤ 0.01 µM
